- MEASURED_TARGET: T1, CD3 expressed on cell-surface of primary human T cells (human, UniProt P07766 23-207; P04234 22-171)
- T1 construct: also called cell-surface CD3; human CD3
- T1 sequence (P07766 23-207 limits assumed, chain 1 of 2): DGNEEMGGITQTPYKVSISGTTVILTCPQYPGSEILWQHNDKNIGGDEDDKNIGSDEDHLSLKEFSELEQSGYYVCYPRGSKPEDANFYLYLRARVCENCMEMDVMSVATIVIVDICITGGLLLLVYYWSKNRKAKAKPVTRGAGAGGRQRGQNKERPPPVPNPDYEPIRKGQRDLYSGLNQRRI
- T1 sequence (P04234 22-171 limits assumed, chain 2 of 2): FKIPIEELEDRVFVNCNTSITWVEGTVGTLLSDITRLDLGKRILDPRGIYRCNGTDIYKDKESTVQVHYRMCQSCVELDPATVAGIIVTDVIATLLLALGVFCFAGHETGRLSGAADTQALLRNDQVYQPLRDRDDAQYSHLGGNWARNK
- EXPERIMENTAL_DETAILS: flow cytometry competition vs murine SP34-AF488 on human T cells, n = 1
Let's look at some binders and their measured IC50.

# annotated cases, reported IC50 shown
* huSP34.3.5 Fab-HF (Fab, V domains shown) VH: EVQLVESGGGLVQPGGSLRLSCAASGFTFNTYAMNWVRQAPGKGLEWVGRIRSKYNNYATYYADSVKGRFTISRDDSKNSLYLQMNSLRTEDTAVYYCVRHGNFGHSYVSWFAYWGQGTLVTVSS VL: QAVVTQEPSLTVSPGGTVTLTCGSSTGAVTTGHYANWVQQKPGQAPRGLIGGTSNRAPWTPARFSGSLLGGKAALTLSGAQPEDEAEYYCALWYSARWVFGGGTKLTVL | 12.9 µg/mL
* huSP34.10.4 Fab-HF (Fab, V domains shown) VH: EVQLVESGGGLVQPGGSLRLSCAASGFTFSDYAMNWVRQAPGKGLEWVGRTRSKYNSYATYYAASVKGRFTISRDDSKNSLYLQMNSLKTEDTAVYYCVRHGNFGHSYVSWFAVWGQGTLVTVSS VL: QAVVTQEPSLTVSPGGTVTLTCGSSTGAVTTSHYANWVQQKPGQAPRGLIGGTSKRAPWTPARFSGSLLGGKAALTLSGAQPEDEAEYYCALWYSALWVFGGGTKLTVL | > 20 µg/mL
* huSP34.2.1 Fab-HF (Fab, V domains shown) VH: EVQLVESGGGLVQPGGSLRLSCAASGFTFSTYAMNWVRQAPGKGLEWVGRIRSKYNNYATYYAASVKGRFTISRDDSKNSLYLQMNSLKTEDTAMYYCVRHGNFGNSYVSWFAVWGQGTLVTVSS VL: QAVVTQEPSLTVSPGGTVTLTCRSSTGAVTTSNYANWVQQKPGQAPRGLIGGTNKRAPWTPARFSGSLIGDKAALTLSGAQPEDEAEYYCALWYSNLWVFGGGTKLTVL | 6.17 µg/mL
* huSP34.2.2 Fab-HF (Fab, V domains shown) VH: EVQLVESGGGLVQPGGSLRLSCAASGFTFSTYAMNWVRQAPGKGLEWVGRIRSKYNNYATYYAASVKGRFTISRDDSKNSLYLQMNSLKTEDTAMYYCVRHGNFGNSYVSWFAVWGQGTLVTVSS VL: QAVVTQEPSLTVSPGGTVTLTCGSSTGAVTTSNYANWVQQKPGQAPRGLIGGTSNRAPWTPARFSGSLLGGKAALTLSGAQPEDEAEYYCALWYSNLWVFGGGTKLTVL | > 20 µg/mL
* huSP34.5.1 Fab-HF (Fab, V domains shown) VH: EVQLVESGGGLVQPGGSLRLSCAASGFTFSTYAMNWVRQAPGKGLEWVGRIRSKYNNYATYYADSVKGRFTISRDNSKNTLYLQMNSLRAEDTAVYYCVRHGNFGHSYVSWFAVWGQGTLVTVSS VL: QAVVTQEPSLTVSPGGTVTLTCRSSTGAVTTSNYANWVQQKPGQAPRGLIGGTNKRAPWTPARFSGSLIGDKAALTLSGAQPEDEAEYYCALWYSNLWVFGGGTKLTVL | > 20 µg/mL
* huSP34.10.5 Fab-HF (Fab, V domains shown) VH: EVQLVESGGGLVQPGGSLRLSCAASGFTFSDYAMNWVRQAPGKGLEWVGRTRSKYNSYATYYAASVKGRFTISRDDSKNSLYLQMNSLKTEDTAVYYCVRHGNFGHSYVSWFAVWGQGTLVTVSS VL: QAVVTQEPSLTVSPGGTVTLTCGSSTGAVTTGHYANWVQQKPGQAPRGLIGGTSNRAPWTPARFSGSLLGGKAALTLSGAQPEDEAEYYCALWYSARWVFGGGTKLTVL | > 20 µg/mL
* huSP34.2.6 Fab-HF (Fab, V domains shown) VH: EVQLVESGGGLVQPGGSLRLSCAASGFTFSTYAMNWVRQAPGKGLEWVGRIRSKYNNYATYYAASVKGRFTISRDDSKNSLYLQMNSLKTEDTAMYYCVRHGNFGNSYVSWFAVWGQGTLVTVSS VL: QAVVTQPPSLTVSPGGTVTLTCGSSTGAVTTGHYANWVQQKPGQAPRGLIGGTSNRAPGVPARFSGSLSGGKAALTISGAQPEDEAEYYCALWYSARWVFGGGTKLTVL | 4.68 µg/mL
* huSP34.4.4 Fab-HF (Fab, V domains shown) VH: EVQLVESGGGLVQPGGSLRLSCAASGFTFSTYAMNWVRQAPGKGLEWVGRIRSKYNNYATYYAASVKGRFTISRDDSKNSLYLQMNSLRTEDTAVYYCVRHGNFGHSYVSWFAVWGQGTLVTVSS VL: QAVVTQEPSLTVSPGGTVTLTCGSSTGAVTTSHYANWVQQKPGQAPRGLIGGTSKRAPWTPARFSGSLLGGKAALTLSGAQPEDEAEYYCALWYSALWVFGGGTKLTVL | > 20 µg/mL
* huSP34.6.5 Fab-HF (Fab, V domains shown) VH: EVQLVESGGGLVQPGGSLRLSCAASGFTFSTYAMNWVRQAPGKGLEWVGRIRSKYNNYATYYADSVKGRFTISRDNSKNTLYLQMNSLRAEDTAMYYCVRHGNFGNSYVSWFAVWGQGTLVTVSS VL: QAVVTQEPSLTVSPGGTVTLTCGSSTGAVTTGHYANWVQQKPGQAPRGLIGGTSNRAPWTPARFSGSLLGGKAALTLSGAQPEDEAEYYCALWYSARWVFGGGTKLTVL | > 20 µg/mL

Ask | Data request, read-out IC50, for huSP34.4.2 Fab-HF (Fab, V domains shown) VH: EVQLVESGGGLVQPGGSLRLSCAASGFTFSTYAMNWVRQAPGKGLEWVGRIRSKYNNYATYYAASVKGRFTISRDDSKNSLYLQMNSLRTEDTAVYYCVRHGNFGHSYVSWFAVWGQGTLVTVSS VL: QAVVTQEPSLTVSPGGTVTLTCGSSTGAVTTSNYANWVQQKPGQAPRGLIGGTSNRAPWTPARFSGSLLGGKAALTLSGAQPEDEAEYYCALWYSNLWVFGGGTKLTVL
Reply | > 20 µg/mL
